Each recorded value in this set is attributed to the RNAGym collection of RNA variant scans (doi:10.7554/elife.90254).

Measured self-cleavage, listed per entry for reference.
B1: LINE1-mini (parent)
chain: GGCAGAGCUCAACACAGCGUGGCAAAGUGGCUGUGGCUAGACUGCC

Variants of: B1
TEST DETAILS: self-cleavage, relative activity (ratio to wild type); higher = more cleavage; in vitro, sequencing; the parent is a self-cleaving ribozyme
Form: value (number only, do not type unit).

Consider the following illustrative entries.
U9A G22A: 0.14
C18G G36U: 0.07
A6C G30A: 1.01
G33A U38G: 0.03
C15A A25C: 0.04

What self-cleavage value was documented for this variant, U28G C46A ?
1.1

Can you handle G5C G21A next?
0.1

Can you handle G22U G35C next?
0.22

Can you handle G2A U34G next?
0.13

Can you handle G36U G40C next?
0.09
